target: T1, cMetECDHis (human, UniProt P08581 25-932, limits assumed, biotinylated in the cross-block ELISA of Example 17); experiment: cross-block ELISA; competitor 069
T1 construct: Expressed in HEK-293F cells; also called soluble cMetECDHis; biotinylated cMetECDHis
The entries below are paired with their reported residual binding, % of no competitor.

{"columns": ["binder", "residual binding, % of no competitor (%)"],
 "data": [
  ["IgG1-1016-069 (antibody, V domains shown, also called clone 069; TH1016-069) VH: QVQLVQSGAEVKKPGASVKVSCETSGYTFTSYGISWVRQAPGHGLEWMGWISAYNGYTNYAQKLQGRVTMTTDTSTSTAYMELRSLRSDDTAVYYCARDLRGTNYFDYWGQGTLVTVSS VL: DIQMTQSPSSVSASVGDRVTITCRASQGISNWLAWFQHKPGKAPKLLIYAASSLLSGVPSRFSGSGSGTDFTLTISSLQPEDFATYYCQQANSFPITFGQGTRLEIK", 2.4],
  ["anti-c-Met HuMab 005 (IgG1) (antibody, V domains shown, also called TH1016-005; PC1016-005) VH: QVQLVQSGAEVKKPGSSVKVSCKASGGTFSSYGFGWVRQAPGQGLEWMGRISPILGIANYAQMFQGRVTITADKSTSTAYMELSSLRSEDTAVYYCARDVGYDWPDTFDIWGQGTMVIVSS VL: DIQMTQSPSSLSASVGDRVTITCRASQGISSWLAWYQQKPEKAPKSLIYAASSLQSGVPSRFSGGGSGTDFTLTISSLQPEDFATYYCQQYNSFPPTFGQGTKVEIK", 124],
  ["anti-c-Met HuMab 045 (IgG1) (antibody, V domains shown, also called TH1016-045; PC1016-045) VH: EVQLLESGGGLVQPGGSLRLSCAASGFTFSSYAMSWVRQAPGKGLEWVSVISGSGGITYYADSVKGRFTISRDNSKNTLYLQMNSLRAEDTAVYYCARDRGWGSDYWGQGTLVTVSS VL: EIVLTQSPATLSLSPGERATLSCRASQSVSSYLAWYQQKPGQAPRLLIYDASNRATGIPARFSGSGSGTDFTLTISSLEPEDFAVYYCQQRSNWPFTFGPGTKVDIK", 97]
]}
